target: IRAK4 enzyme (Homo sapiens (Human), UniProt Q9NWZ3); assay: IRAK4 Biochemical Assay (TR-FRET, STK1 KinEASE)
Sequence (Q9NWZ3 whole entry): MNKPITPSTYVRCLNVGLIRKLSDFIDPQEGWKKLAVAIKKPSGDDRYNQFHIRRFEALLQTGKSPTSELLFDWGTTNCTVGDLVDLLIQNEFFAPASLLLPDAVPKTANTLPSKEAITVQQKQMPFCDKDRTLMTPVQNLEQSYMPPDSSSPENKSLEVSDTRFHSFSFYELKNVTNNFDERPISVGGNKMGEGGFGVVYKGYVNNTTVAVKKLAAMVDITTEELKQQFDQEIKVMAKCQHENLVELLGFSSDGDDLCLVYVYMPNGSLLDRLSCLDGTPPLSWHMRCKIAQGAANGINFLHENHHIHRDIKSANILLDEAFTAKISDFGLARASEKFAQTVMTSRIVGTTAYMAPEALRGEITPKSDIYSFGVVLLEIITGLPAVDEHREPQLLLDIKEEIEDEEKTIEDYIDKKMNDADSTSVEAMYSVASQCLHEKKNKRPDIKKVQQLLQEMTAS
experimental endpoint: IC50 (nM)
Form entry: value (nM) — number only.

IN: Reported IC50, molecule CC(C)Nc1cc(-c2ccc3cc(C#N)cnn23)ncc1-c1nnc(N2CC3CCCC(C3)C2)s1 : ____
OUT: 57.7

IN: Consider next the molecule CC(=O)N[C@@H]1CC[C@@H](c2nnc(-c3cnc(-c4ccc5cc(C#N)cnn45)cc3NC(C)C)s2)OC1 in the same way.
OUT: 0.66

IN: Further, for CC(C)Nc1cc(-c2ccc3cc(C#N)cnn23)ncc1-c1nnc(N2C3CC2CN(C(=O)N2CCN(C)CC2)C3)s1 ?
OUT: 0.93

IN: Input CC(C)Nc1cc(-c2ccc3cc(C#N)cnn23)ncc1-c1nnc(N2CCN3CCOC[C@H]3C2)s1
OUT: 0.48

* * *

Exercise: state measured IC50 for each of the molecules provided.
biological target: IRAK4 enzyme (Homo sapiens (Human), UniProt Q9NWZ3); assay: IRAK4 Biochemical Assay (TR-FRET, STK1 KinEASE)
Please state the figure in nM; there is no need to write the unit.

IN: Item CC(=O)N[C@@H]1CCN(c2nnc(-c3cnc(-c4ccc5cc(C#N)cnn45)cc3NC3COC3)s2)CC1(F)F [Example 183] with IRAK4 enzyme (Homo sapiens (Human), UniProt Q9NWZ3) - IC50?
OUT: 0.5

IN: // same read-out, input: CC(=O)N[C@H]1CC[C@H](c2nnc(-c3cnc(-c4ccc5cnc(N[C@@H]6CCCC[C@@H]6N)nn45)cc3NC(C)C)s2)CC1 [Example 50]
OUT: 0.92

IN: Same again, this time with CC(=O)NC12CCC(c3nnc(-c4cnc(-c5ccc6cc(C#N)cnn56)cc4NC4COC4)s3)(CC1)CC2 [Example 70]
OUT: 0.58

IN: Field entry: CC(=O)N[C@@H]1CCCN(c2nnc(-c3cnc(-c4ccc5cc(C#N)cnn45)cc3NC(C)C)s2)C1 [Example 296]
OUT: 1.02

* * *

molecular target: IRAK4 enzyme (Homo sapiens (Human)); experiment: IRAK4 Biochemical Assay (TR-FRET, STK1 KinEASE)
experimental endpoint: pIC50
On this scale, pIC50 is minus log10 of a concentration expressed in M (mol/L).

IN: # input compound: CC(=O)NC1CCN(c2nnc(-c3cnc(-c4ccc5cc(C#N)cnn45)cc3NC(C)C)s2)[C@@H](C)C1 (stereo partly drawn) [Compound 249] ; wanted: its pIC50
OUT: 9.04

IN: Repeat with N#Cc1cnn2c(-c3cc(NC4CCOCC4)c(-c4nnc(N5CC6CCC(C5)O6)s4)cn3)ccc2c1 [Compound 256]
OUT: 9.17

IN: Quick one: CC(=O)N[C@H]1CCN(c2nnc(-c3cnc(-c4ccc5cc(C#N)cnn45)cc3N[C@H](C)C#N)s2)CC1(F)F [Example 152]
OUT: 9.24
